assay: Ratio of drug level in liver to plasma in C57BL/6 mouse at 2 mg/kg, po administered as single cassette dose via gavage measured at 0.5 hrs post dose; type: ADME, organism-based
Can you tell me Kp at 0.5 h for the items I'm about to list?

Please list Kp at 0.5 h recorded for the molecule `CC[C@H]1[C@@H](O)[C@@H]2[C@H](CC[C@]3(C)[C@@H]([C@H](C)CCc4cc(O)no4)CC[C@@H]23)[C@@]2(C)CC[C@@H](O)C[C@@H]12` 44

State its Kp at 0.5 h: `CC[C@H]1[C@@H](O)[C@@H]2[C@H](CC[C@]3(C)[C@@H]([C@H](C)CCNC(=O)C(=O)O)CC[C@@H]23)[C@@]2(C)CC[C@@H](O)C[C@@H]12` 13

Input `CC[C@H]1[C@@H](O)[C@@H]2[C@H](CC[C@]3(C)[C@@H]([C@H](C)CCC(=O)NS(C)(=O)=O)CC[C@@H]23)[C@@]2(C)CC[C@@H](O)C[C@@H]12` , output reported Kp at 0.5 h. 53

Please look at this molecule and report its Kp at 0.5 h: `CC[C@H]1[C@@H](O)[C@@H]2[C@H](CC[C@]3(C)[C@@H]([C@H](C)CCc4nnn[nH]4)CC[C@@H]23)[C@@]2(C)CC[C@@H](O)C[C@@H]12` 7

---

Give EC50 for every item shown.
biological target: Bile acid receptor (Homo sapiens, UniProt Q96RI1); test: Agonist activity at recombinant human GST-tagged FXR LBD (193 to 472 residues) expressed in baculovirus-infected insect cells assessed as recruitment of biotinylated SRC1 peptide measured after 1 hr by Alphascreen assay
Sequence (Q96RI1 whole entry, the tested form may be a part): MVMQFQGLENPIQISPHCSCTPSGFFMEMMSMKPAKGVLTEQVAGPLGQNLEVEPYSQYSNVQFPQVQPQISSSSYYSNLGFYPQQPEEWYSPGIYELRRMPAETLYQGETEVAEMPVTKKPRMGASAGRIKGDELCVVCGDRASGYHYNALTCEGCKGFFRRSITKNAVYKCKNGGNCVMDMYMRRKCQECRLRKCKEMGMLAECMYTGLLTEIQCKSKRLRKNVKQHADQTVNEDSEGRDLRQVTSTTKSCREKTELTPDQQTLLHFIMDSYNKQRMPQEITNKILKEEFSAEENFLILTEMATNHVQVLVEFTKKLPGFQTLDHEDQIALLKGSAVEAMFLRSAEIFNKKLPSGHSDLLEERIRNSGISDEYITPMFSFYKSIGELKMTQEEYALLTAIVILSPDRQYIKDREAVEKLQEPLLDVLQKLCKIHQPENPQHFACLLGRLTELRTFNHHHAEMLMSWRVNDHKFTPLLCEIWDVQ
Respond with the bare value in nM.

Specify measured EC50 for `CCOC(=O)NCC[C@@H](C)[C@H]1CC[C@H]2[C@@H]3[C@H](O)[C@H](CC)[C@@H]4C[C@H](O)CC[C@]4(C)[C@H]3CC[C@]12C` . 280

// fetch EC50 given entry `CC[C@H]1[C@@H](O)[C@@H]2[C@H](CC[C@]3(C)[C@@H]([C@H](C)CCCNS(C)(=O)=O)CC[C@@H]23)[C@@]2(C)CC[C@@H](O)C[C@@H]12` 110

Tell us which EC50 value is on record for `CC[C@H]1[C@@H](O)[C@@H]2[C@H](CC[C@]3(C)[C@@H]([C@H](C)CCC(C)=O)CC[C@@H]23)[C@@]2(C)CC[C@@H](O)C[C@@H]12` 1000

Kindly indicate its recorded EC50. Item: `CC[C@H]1[C@@H](O)[C@@H]2[C@H](CC[C@]3(C)[C@@H]([C@H](C)CCC(=O)O)CC[C@@H]23)[C@@]2(C)CC[C@@H](OC)C[C@@H]12` 1800

Write down EC50 measured for item `CC[C@H]1[C@@H](O)[C@@H]2[C@H](CC[C@]3(C)[C@@H]([C@H](C)CCc4cc(O)no4)CC[C@@H]23)[C@@]2(C)CC[C@@H](O)C[C@@H]12` 30

Return reported EC50. Input compound: `CC[C@H]1[C@@H](O)[C@@H]2[C@H](CC[C@]3(C)[C@@H]([C@H](C)CCNC(=O)O[C@@H]4CCOC4)CC[C@@H]23)[C@@]2(C)CC[C@@H](O)C[C@@H]12` 120

---

biological target: Bile acid receptor (Homo sapiens); test: Agonist activity at recombinant human GST-tagged FXR LBD (193 to 472 residues) expressed in baculovirus-infected insect cells assessed as recruitment of biotinylated SRC1 peptide measured after 1 hr by Alphascreen assay
Exercise: state measured EC50 for each of the compounds provided.
Your answer should be a plain number; it is taken to be in nM.

Assign EC50 to the following record: CC[C@H]1[C@@H](O)[C@@H]2[C@H](CC[C@]3(C)[C@@H]([C@H](C)CCC4NC(=O)NC4=O)CC[C@@H]23)[C@@]2(C)CC[C@@H](O)C[C@@H]12 (stereo not given in full) 2700

Provide measured EC50 value, entry: `CC[C@H]1[C@@H](O)[C@@H]2[C@H](CC[C@]3(C)[C@@H]([C@H](C)CCNC(N)=O)CC[C@@H]23)[C@@]2(C)CC[C@@H](O)C[C@@H]12` 230

Report EC50 for `CC[C@H]1[C@@H](O)[C@@H]2[C@H](CC[C@]3(C)[C@@H]([C@H](C)CCCNS(=O)(=O)c4ccccc4)CC[C@@H]23)[C@@]2(C)CC[C@@H](O)C[C@@H]12` 230

Supply EC50 value. Item: `CC[C@H]1[C@@H](O)[C@@H]2[C@H](CC[C@]3(C)[C@@H]([C@H](C)CCNC(=O)NC4CC4)CC[C@@H]23)[C@@]2(C)CC[C@@H](O)C[C@@H]12` 70

State its EC50 for this compound: `CC[C@H]1[C@@H](O)[C@@H]2[C@H](CC[C@]3(C)[C@@H]([C@H](C)CCNC(C)=O)CC[C@@H]23)[C@@]2(C)CC[C@@H](O)C[C@@H]12` 150

Just for reference, ChEMBL document CHEMBL4138253 is where these values come from.
